Test system: HCT116 p97P510S
test_method_notes: Cellular viability, resistant HCT116 p97P510S
Format: cell-based
test_conditions: Homo sapiens, HCT-116, Table S3, four replicates
Below, each entry is listed alongside its reported pIC50.
Remember the convention: pIC50 equals -log10 of concentration in molar.

compound="Cc1cc(OCc2nnc(SC3CCCC3)n2-c2cccnc2)ccc1-c1ccc(S(C)(=O)=O)cc1 [NMS-873, reference compound]" study_target="HCT116 p97P510S" readout=pIC50 recorded_number=5.04

Data request: Quote pIC50 reported for Cc1cc2c(C(N)=O)cccc2n1-c1nc2c(c(NCc3ccccc3)n1)COCC2 [CB-5083, reference compound] please.
Data returned: 6.00

Data request: Quote pIC50 reported for CN1CCC(NC(=O)OCC#Cc2cc(F)c(OCc3nnc(S[C@H]4C=CCCC4)n3-c3cccnc3)cc2F)CC1 please.
Data returned: 4.99

Data request: Quote pIC50 reported for CN1CCC(NC(=O)OCC#Cc2c(F)cc(OCc3nnc(S[C@H]4C=CCCC4)n3-c3cccnc3)cc2F)CC1 please.
Data returned: 5.16
